These entries and their values trace back to patent US11753404B2.

Item-by-item account of GI50
# test system: BAF3 FL KIT EX11DEL/T670I (Homo sapiens, UniProt P10721, T670I, cells depend on it, form not given)
# Construct: BAF3 FL KIT EX11DEL/T670I
# Sequence (P10721 with tags, fused parts or gaps DEL557-558/T670I, form open): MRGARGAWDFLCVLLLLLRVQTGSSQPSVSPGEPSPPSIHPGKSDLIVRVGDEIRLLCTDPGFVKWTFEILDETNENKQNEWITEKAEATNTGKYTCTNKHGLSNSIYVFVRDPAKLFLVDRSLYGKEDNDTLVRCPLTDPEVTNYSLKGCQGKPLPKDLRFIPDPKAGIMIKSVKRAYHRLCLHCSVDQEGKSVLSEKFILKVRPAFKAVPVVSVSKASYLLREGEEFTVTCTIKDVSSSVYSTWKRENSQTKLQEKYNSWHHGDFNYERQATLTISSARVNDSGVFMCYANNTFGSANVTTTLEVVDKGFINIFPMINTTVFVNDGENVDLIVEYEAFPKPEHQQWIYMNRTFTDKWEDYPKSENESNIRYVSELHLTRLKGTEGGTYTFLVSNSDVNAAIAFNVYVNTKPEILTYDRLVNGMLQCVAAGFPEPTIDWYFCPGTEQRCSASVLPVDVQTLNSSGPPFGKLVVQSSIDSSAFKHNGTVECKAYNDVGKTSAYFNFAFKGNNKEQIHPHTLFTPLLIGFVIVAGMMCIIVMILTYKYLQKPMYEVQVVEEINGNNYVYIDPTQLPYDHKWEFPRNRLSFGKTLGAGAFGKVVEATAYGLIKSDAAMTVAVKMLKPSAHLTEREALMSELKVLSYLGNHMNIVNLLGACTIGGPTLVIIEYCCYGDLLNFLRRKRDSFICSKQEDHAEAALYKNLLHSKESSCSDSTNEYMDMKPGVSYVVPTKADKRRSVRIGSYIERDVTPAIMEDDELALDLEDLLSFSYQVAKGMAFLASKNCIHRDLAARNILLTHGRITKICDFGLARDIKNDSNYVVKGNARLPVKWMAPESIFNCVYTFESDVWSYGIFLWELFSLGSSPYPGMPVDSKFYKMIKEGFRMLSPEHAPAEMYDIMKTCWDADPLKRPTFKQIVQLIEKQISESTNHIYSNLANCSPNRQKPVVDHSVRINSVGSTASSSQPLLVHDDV
# experiment description: c-Kit assay: Ba/F3 KIT mutant cell viability (Cell Titer-Glo, 72 hours)
# Type: cell-based
# conditions: viability after 72 hours

Reference set, count: 5
• Cc1ccc(C(=O)Nc2cc(C(F)(F)F)ccn2)cc1C#Cc1cnc(NC(=O)NCCCN)s1 [I-36] = 10 to 50 nM
• Cc1ccc(C(=O)Nc2cc(C(F)(F)F)ccn2)cc1C#Cc1cnc(NC(=O)N(C)C2CCN(C)CC2)s1 [I-29] = < 10 nM
• Cc1ccc(C(=O)Nc2cc(C(F)(F)F)ccn2)cc1C#Cc1cnc(NC(=O)N(C)C2CN(C)C2)s1 [I-39] = 100 to 10000 nM
• Cc1ccc(C(=O)Nc2cc(C(F)(F)F)ccn2)cc1C#Cc1cnc(NC(=O)NCCN2CCN(C)CC2)s1 [I-14] = 10 to 50 nM
• COCCN(C)C(=O)Nc1ncc(C#Cc2cc(NC(=O)c3cc(C(F)(F)F)ccn3)ccc2F)s1 [I-62] = < 10 nM

Answer with the recorded GI50 of COCCN(C)C(=O)Nc1ncc(C#Cc2cc(NC(=O)c3cc(C(F)(F)F)ccn3)ccc2C)s1 [I-54] only.
10 to 50 nM

Answer with the recorded GI50 of Cc1ccc(C(=O)Nc2cc(C(F)(F)F)ccn2)cc1C#Cc1cnc(NC(=O)C(C)(C)C)s1 [I-52] only.
100 to 10000 nM

Answer with the recorded GI50 of Cc1ccc(C(=O)Nc2cc(C(F)(F)F)ccn2)cc1C#Cc1cnc(NC(=O)C2CC2)s1 [I-49] only.
10 to 50 nM

Answer with the recorded GI50 of Cc1ccc(C(=O)Nc2cc(C(F)(F)F)ccn2)cc1C#Cc1cnc(NC(=O)N(C)CCN2CCN(C)CC2)s1 [I-16] only.
< 10 nM

Answer with the recorded GI50 of Cc1ccc(C(=O)Nc2cc(C(F)(F)F)ccn2)cc1C#Cc1cnc(NC(=O)N(C)C2CCC(O)CC2)s1 (centres unmarked) [I-22] only.
< 10 nM

Answer with the recorded GI50 of CNC(=O)Nc1ncc(C#Cc2ccc(F)c(C(=O)Nc3cc(C(F)(F)F)ccn3)c2)s1 [I-42] only.
100 to 10000 nM
